Study System: T1, SSBP1 p.E27K (human, UniProt Q04837 17-148, E27K)
T1 sequence: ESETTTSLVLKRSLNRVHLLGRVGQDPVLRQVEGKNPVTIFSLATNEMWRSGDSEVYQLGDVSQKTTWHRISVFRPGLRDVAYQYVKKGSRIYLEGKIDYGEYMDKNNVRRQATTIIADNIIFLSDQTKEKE
Procedure Text: fluorescence anisotropy; 5 mM MgCl2; apparent Kd, protein as tetramer; 20 nM DNA; quadratic fit; plateau anisotropy about 1.4-fold higher than WT; 30 mM HEPES-KOH pH 7.6, 50 mM KCl, 2 mM DTT, 5 mM MgCl2, 20 nM FAM-oligonucleotide, 37 C
Recorded Conditions: protein: recombinant; chain copies: 4; label: 3' FAM (fluorescein); single strand
Recorded Endpoint: pKd
Give bare numbers, as −log10 of the molar value.

pKd reading for AATGCTATCACTATTCGTAGACTTGACCACACCTTGTCAGCTCACGCTCC (ssDNA) [FAM-labeled 50 nt ssDNA] : 8.03
